Test system: Staphylococcus aureus
protocol summary: Antimicrobial activity against Methicillin susceptible Staphylococcus aureus 239/7 by twofold dilution technique
Format: functional
Hi there, I'd appreciate the recorded MIC for every entry that follows.
Numbers only, in µg/mL.

>  <molecule>
COCCOCCN/N=C/c1c(O)c(O)c(C(C)C)c2cc(C)c(-c3c(C)cc4c(C(C)C)c(O)c(O)c(/C=N/NCCOCCOC)c4c3O)c(O)c12

>  <MIC [µg/mL]>
400

$$$$
>  <molecule>
COCCOC(CN/N=C/c1c(O)c(O)c(C(C)C)c2cc(C)c(-c3c(C)cc4c(C(C)C)c(O)c(O)c(/C=N/NCC(OCCOC)OCCOC)c4c3O)c(O)c12)OCCOC

>  <MIC [µg/mL]>
400

$$$$
>  <molecule>
COCCOCCOCCN/N=C/c1c(O)c(O)c(C(C)C)c2cc(C)c(-c3c(C)cc4c(C(C)C)c(O)c(O)c(/C=N/NCCOCCOCCOC)c4c3O)c(O)c12

>  <MIC [µg/mL]>
400

$$$$
>  <molecule>
Cc1cc2c(C(C)C)c(O)c(O)c(C=O)c2c(O)c1-c1c(C)cc2c(C(C)C)c(O)c(O)c(C=O)c2c1O [GOSSYPOL]

>  <MIC [µg/mL]>
25

$$$$
>  <molecule>
Cc1cc2c(c(O)c1-c1c(C)cc3c(c1O)/C(=C/N)C(=O)C(O)=C3C(C)C)/C(=C/N)C(=O)C(O)=C2C(C)C

>  <MIC [µg/mL]>
100

$$$$
>  <molecule>
COc1ccc2[nH]cc(CCN/C=C3\C(=O)C(O)=C(C(C)C)c4cc(C)c(-c5c(C)cc6c(c5O)/C(=C/NCCc5c[nH]c7ccc(OC)cc57)C(=O)C(O)=C6C(C)C)c(O)c43)c2c1

>  <MIC [µg/mL]>
100

$$$$

Query: // query MIC value for entry CCCCOCCOCCN/C=C1\C(=O)C(O)=C(C(C)C)c2cc(C)c(-c3c(C)cc4c(c3O)/C(=C/NCCOCCOCCCC)C(=O)C(O)=C4C(C)C)c(O)c21
Reply: 100
